target: steroid sulfatase (Homo sapiens, UniProt P08842); construct: JEG-3 which constitutively expresses high amount of aromatase and steroid sulfatase; endogenous in cells; experiment: Steroid sulfatase (STS) inhibition assay in JEG-3 cells ([6,7-3H] estrone sulfate); conditions: 1 hour at 37° C., duplicate
Sequence (P08842 22-583): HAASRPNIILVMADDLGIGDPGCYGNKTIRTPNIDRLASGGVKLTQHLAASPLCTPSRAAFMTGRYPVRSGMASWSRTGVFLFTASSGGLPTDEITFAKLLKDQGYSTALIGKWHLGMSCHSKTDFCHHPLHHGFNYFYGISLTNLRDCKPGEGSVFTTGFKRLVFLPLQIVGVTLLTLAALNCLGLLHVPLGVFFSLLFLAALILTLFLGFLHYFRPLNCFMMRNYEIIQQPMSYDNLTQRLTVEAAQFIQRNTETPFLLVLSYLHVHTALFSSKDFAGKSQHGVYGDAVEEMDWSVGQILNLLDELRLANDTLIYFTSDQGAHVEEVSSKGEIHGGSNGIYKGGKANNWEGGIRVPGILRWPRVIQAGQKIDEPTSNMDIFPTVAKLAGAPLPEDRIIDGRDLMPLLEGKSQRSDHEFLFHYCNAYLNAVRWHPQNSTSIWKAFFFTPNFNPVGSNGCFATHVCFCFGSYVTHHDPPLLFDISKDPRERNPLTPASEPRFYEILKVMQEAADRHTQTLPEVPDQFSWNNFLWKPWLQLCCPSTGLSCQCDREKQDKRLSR
observable: IC50 (nM)

moleculesmiles=N#Cc1ccc(Nn2cnc3ccccc32)nc1-c1ccc(OS(N)(=O)=O)cc1 comparisonsymbol== valueobserved=6
moleculesmiles=N#Cc1ncc(Cn2cnc3cc(F)c(F)cc32)cc1-c1ccc(OS(N)(=O)=O)cc1 comparisonsymbol== valueobserved=15.5
moleculesmiles=N#Cc1cnc(Cn2cnc3cccnc32)cc1-c1ccc(OS(N)(=O)=O)cc1 comparisonsymbol== valueobserved=10.5
moleculesmiles=N#Cc1ccc(Cn2cnc3ccccc32)nc1-c1ccc(OS(N)(=O)=O)cn1 comparisonsymbol=> valueobserved=60
moleculesmiles=CN(c1ccc(C#N)c(-c2ccc(OS(N)(=O)=O)cc2)c1)n1nnc2ccccc21 comparisonsymbol=> valueobserved=60
moleculesmiles=CSc1ccc(-c2cc(Nn3cnc4ccccc43)ccc2C#N)cc1OS(N)(=O)=O comparisonsymbol=> valueobserved=60
moleculesmiles=N#Cc1ncc(Nn2cnc3cccnc32)nc1-c1ccc(OS(N)(=O)=O)cc1 comparisonsymbol== valueobserved=18.8
moleculesmiles=N#Cc1cnc(Nn2cnc3ccccc32)nc1-c1ccc(OS(N)(=O)=O)cc1 comparisonsymbol== valueobserved=14.6

Measured values drawn from patent US9682941B2 for this set.
